Protocol Description: chemical genetic growth profiling, strain panel (AID 1159580);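 note: tested at 20 µM; growth read once vehicle control cultures reached saturation at 30 °C; 1 = growth at the plate median or of vehicle wells; lower values mean less growth of the strain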
Setup Conditions: S. cerevisiae deletion strains, growth OD, locus YMR223W, strain ubp8, active compounds read low
Among all 5,500 compounds or so, about 2,000 (36%) were called active. Inconclusive results (about 18%) are left out. The list shows a part of the results.
Each entry below lists one item and its recorded normalized growth value.
Observation Type: normalized growth

>>> measured_result("COc1cc(O)c(C(=O)c2ccccc2)c(OC)c1")
0.966
>>> measured_result("CC1(C)C[C@@H]2C(=O)CC[C@H]3O[C@]3(C)CC[C@H]21")
0.991
>>> measured_result("CCOC(=O)C1=C(C)NC(C)=C(C(=O)OC)C1c1cccc([N+](=O)[O-])c1 (stereo unspecified)")
1.01
>>> measured_result("COc1cc(O)c(C)c(O)c1")
1.02
>>> measured_result("Cc1ncc([N+](=O)[O-])n1CCO")
0.952
>>> measured_result("c1ccc2c(c1)[nH]c1cnccc12")
1
